# Test system: NCI-H23 lung
# assay protocol: NCI tumour cell line growth inhibition, 48 h
value kind: TGI

>  <compound>
C=C[C@]1(C)C=C2C(=O)[C@@]3(O)OC(=O)[C@@]4(CCCC(C)(C)[C@H]34)[C@@]2(O)CC1

>  <value kind>
TGI

>  <observed measurement>
5.29 µM

$$$$
>  <compound>
Cc1cc(C)nc(SC2=C(Nc3cccc(Cl)c3)C(=O)N(Cc3ccccc3)C2=O)n1

>  <value kind>
TGI

>  <observed measurement>
> 170 µM

$$$$
>  <compound>
O=C(O)/C(Cl)=C(\Cl)C(=O)Nc1ccccc1

>  <value kind>
TGI

>  <observed measurement>
> 100 µM

$$$$
>  <compound>
CC1(C)N=C(N)N=C(N)N1c1cccc(OCc2cccc([N+](=O)[O-])c2)c1

>  <value kind>
TGI

>  <observed measurement>
> 100 µM

$$$$
>  <compound>
CCCC(=O)NNc1[nH]c(-c2ccc(OC)cc2)cc1C(=O)OCC

>  <value kind>
TGI

>  <observed measurement>
38 µM

$$$$
>  <compound>
COc1ccc(OC)c2cc(C3(C)SCCCS3)ccc12

>  <value kind>
TGI

>  <observed measurement>
> 100 µM

$$$$
>  <compound>
O=C(/C=C/c1ccccc1)CCC1C(=O)NC(=O)NC1=O

>  <value kind>
TGI

>  <observed measurement>
> 100 µM

$$$$
>  <compound>
CC1OC(O)CC(OC(=O)c2ccccc2)C1OC(=O)c1ccccc1 (stereo not given)

>  <value kind>
TGI

>  <observed measurement>
30.8 µM

$$$$
>  <compound>
O=S1c2ccc(Cl)cc2CC(SSC2Cc3cc(Cl)ccc3S(=O)c3ccccc32)c2ccccc21 (stereo not given)

>  <value kind>
TGI

>  <observed measurement>
> 100 µM

$$$$
>  <compound>
CCOC(=O)/C(=C\NC(C)(C)C)c1nc2ccccc2o1

>  <value kind>
TGI

>  <observed measurement>
> 100 µM

$$$$

====

# Tested on: 786-0 renal
# assay protocol: NCI tumour cell line growth inhibition, 48 h
Where a SMILES comes first, the peptide text is derived from it. The star is where a group is joined. OBn = c1ccc(CO*)cc1
value kind: TGI

>  <molecule>
CC1(C)N=C(N)N=C(N)N1c1cccc(OCc2cccc([N+](=O)[O-])c2)c1

>  <target or test system>
786-0 renal

>  <value kind>
TGI

>  <observed measurement>
> 100 µM

$$$$
>  <molecule>
CNC(=O)CN(CC(N)=O)C(=O)NC

>  <target or test system>
786-0 renal

>  <value kind>
TGI

>  <observed measurement>
> 100 µM

$$$$
>  <molecule>
CCOC(=O)/C(=C\NC(C)(C)C)c1nc2ccccc2o1

>  <target or test system>
786-0 renal

>  <value kind>
TGI

>  <observed measurement>
70.7 µM

$$$$
>  <molecule>
COc1cc(C2S/C(=C/c3ccccc3)C(=O)N2c2ccc([N+](=O)[O-])cc2)cc(OC)c1OC (centres undefined)

>  <target or test system>
786-0 renal

>  <value kind>
TGI

>  <observed measurement>
> 100 µM

$$$$
>  <molecule>
Nc1c(Cl)c([N+](=O)[O-])cc2c1OCCCCO2

>  <target or test system>
786-0 renal

>  <value kind>
TGI

>  <observed measurement>
> 100 µM

$$$$
>  <molecule>
COC1CC2CCC(C)[C@](O)(O2)C(=O)C(=O)N2CCCCC2C(=O)OC(C(C)CC2CCC(O)C(OC)C2)CC(=O)C(C)C=C(C)C(OC(=O)CN(C)C)C(OC)C(=O)C(C)CC(C)/C=C/C=C/C=C\1C (some centres undefined)

>  <target or test system>
786-0 renal

>  <value kind>
TGI

>  <observed measurement>
24.7 µM

$$$$
>  <molecule>
C#C[C@]1(O)CC[C@H]2[C@@H]3CCC4=C/C(=N\OCCN5CCCC5)CC[C@]4(C)[C@H]3CC[C@@]21C

>  <target or test system>
786-0 renal

>  <value kind>
TGI

>  <observed measurement>
24.4 µM

$$$$
>  <molecule>
COC(=O)[C@]12CSC[C@H]1C[C@H](c1ccc(N(C)C)cc1)N2

>  <target or test system>
786-0 renal

>  <value kind>
TGI

>  <observed measurement>
> 100 µM

$$$$
>  <molecule>
CC(C)=CCC/C(C)=C/CC/C(=C/COP(=O)(OCc1ccc([N+](=O)[O-])o1)N(C)CCCCCl)C(C)(C)C (centres undefined)

>  <target or test system>
786-0 renal

>  <value kind>
TGI

>  <observed measurement>
8.18 µM

$$$$
>  <molecule>
COC1/C=C\OC2(C)Oc3c(C)c(O)c4c(O)c(c(CN(C)C)c(O)c4c3C2=O)NC(=O)/C(C)=C\C=C/C(C)C(O)C(C)C(O)C(C)C(OC(C)=O)C1C (centres undefined)

>  <target or test system>
786-0 renal

>  <value kind>
TGI

>  <observed measurement>
> 100 µM

$$$$
>  <molecule>
COc1ccc2c(c1)/C(=C\c1cccc(/C=C3/C(=O)Nc4ccc(OC)cc43)n1)C(=O)N2

>  <target or test system>
786-0 renal

>  <value kind>
TGI

>  <observed measurement>
2.55 µM

$$$$
>  <molecule>
Cn1cnc2c(NCc3ccccc3)nc(NCCO)nc21

>  <target or test system>
786-0 renal

>  <value kind>
TGI

>  <observed measurement>
> 435 µM

$$$$
>  <molecule>
Cc1cc(NCC2CC/C(=C\C=C\c3ccccc3)C2=O)no1 (centres undefined)

>  <target or test system>
786-0 renal

>  <value kind>
TGI

>  <observed measurement>
> 100 µM

$$$$
>  <molecule>
COC(=O)c1c(C(=O)OC)c(C(c2ccccc2)c2ccccc2)n(-c2ccccc2)c1Cl

>  <target or test system>
786-0 renal

>  <value kind>
TGI

>  <observed measurement>
> 10 µM

$$$$
>  <molecule>
NC(CCC(=O)OCc1ccccc1)C(=O)NC(CCC(=O)OCc1ccccc1)C(=O)O (centres undefined) (H-Glu(OBn)-Glu(OBn)-OH; configuration not given here)

>  <target or test system>
786-0 renal

>  <value kind>
TGI

>  <observed measurement>
> 100 µM

$$$$
>  <molecule>
CSC(=S)NNC(=O)c1ccncc1

>  <target or test system>
786-0 renal

>  <value kind>
TGI

>  <observed measurement>
30.8 µM

$$$$
>  <molecule>
Cn1c2cccc3nnc4cccc(c4c32)n1C

>  <target or test system>
786-0 renal

>  <value kind>
TGI

>  <observed measurement>
> 100 µM

$$$$
>  <molecule>
Cc1ccc(C2=NO[C@@H]3C(=O)N(c4ccc(Cc5ccc(N6C(=O)[C@H]7C(c8ccc(C)cc8)=NO[C@H]7C6=O)cc5)cc4)C(=O)[C@H]23)cc1

>  <target or test system>
786-0 renal

>  <value kind>
TGI

>  <observed measurement>
> 100 µM

$$$$
>  <molecule>
C[C@@H]1OC2(O)[C@@H]3CCCN3C(=O)N(Cc3ccccc3)N2C1=O (some centres undefined)

>  <target or test system>
786-0 renal

>  <value kind>
TGI

>  <observed measurement>
> 100 µM

$$$$

====

The entries below are paired with their reported TGI.
# System: A498 renal
# assay protocol: NCI tumour cell line growth inhibition, 48 h

>  <compound>
COC(=O)C1=CC2OC13CC1CCC3(C2=O)C1(C)C (stereo not given)

>  <reading qualifier>
=

>  <TGI, µM>
49

$$$$
>  <compound>
COc1cc(C2S/C(=C/c3ccccc3)C(=O)N2c2ccc([N+](=O)[O-])cc2)cc(OC)c1OC (stereo not given)

>  <reading qualifier>
>

>  <TGI, µM>
100

$$$$
>  <compound>
CC(C)=CCC/C(C)=C/CC/C(=C/COP(=O)(OCc1ccc([N+](=O)[O-])o1)N(C)CCCCCl)C(C)(C)C (stereo not given)

>  <reading qualifier>
=

>  <TGI, µM>
2.16

$$$$
>  <compound>
Cc1ccnc2nc3[nH]c4ccccc4c3cc12

>  <reading qualifier>
>

>  <TGI, µM>
100

$$$$
>  <compound>
COc1ccc(N2C(=O)/C(=C\c3cc(OC)c(OC)c(OC)c3)S(=O)(=O)C2c2ccccc2)cc1 (stereo not given)

>  <reading qualifier>
>

>  <TGI, µM>
100

$$$$

====

# System: UACC-62 melanoma
# assay protocol: NCI tumour cell line growth inhibition, 48 h
The entries below are paired with their reported TGI.

>  <molecule>
O=C(/C=C/c1ccccc1)CCC1C(=O)NC(=O)NC1=O

>  <reading qualifier>
>

>  <TGI / µM>
100

$$$$
>  <molecule>
c1ccc2cc(Cn3c(-c4ccc5ccccc5c4)[n+](Cc4ccc5ccccc5c4)c4ccccc43)ccc2c1

>  <reading qualifier>
=

>  <TGI / µM>
0.89

$$$$
>  <molecule>
COC(=O)C1=CC2OC13CC1CCC3(C2=O)C1(C)C (configuration not stated)

>  <reading qualifier>
=

>  <TGI / µM>
30.6

$$$$
>  <molecule>
CC1(C)OC(=O)CC12CCN(Cc1ccccc1)CC2

>  <reading qualifier>
>

>  <TGI / µM>
100

$$$$
>  <molecule>
CCCCCCCCCCCCCCCCOCCCOP(=O)(O)C1CCCN(O)C1=O (configuration not stated)

>  <reading qualifier>
=

>  <TGI / µM>
7.18

$$$$
>  <molecule>
O=C1/C(=C/c2ccc(Cl)cc2)CN(C(=O)C(Cl)Cl)C/C1=C\c1ccc(Cl)cc1

>  <reading qualifier>
=

>  <TGI / µM>
0.426

$$$$
>  <molecule>
CCOC(=O)c1c(Cl)c2c(n1Cc1cc(OC)cc(OC)c1)-c1oncc1CCC2

>  <reading qualifier>
>

>  <TGI / µM>
100

$$$$
>  <molecule>
CC(C)C(Cl)CC/C(CBr)=C(\Cl)CCl (configuration not stated)

>  <reading qualifier>
=

>  <TGI / µM>
6.16

$$$$
>  <molecule>
CC(=O)OCC1OC(S[As](C)C)C(OC(C)=O)C1OC(C)=O (configuration not stated)

>  <reading qualifier>
=

>  <TGI / µM>
1.52

$$$$
>  <molecule>
NC(=O)c1cc(C2OC(CO)C(O)C2O)nn1-c1ccc([N+](=O)[O-])cc1 (configuration not stated)

>  <reading qualifier>
>

>  <TGI / µM>
100

$$$$
>  <molecule>
O=Cc1ccc2c(c1)CC1(C2)Cc2ccc(C=O)cc2C1

>  <reading qualifier>
=

>  <TGI / µM>
23.8

$$$$
>  <molecule>
Nc1nncs1

>  <reading qualifier>
>

>  <TGI / µM>
3890

$$$$
>  <molecule>
CCCCCCCCCCCCNC1(C)CNCCCNCCNCCCNC1

>  <reading qualifier>
=

>  <TGI / µM>
3.25

$$$$
>  <molecule>
CCC[CH2][Sn]([CH2]CCC)([S]C1=NCCS1)[S]C1=NCCS1

>  <reading qualifier>
=

>  <TGI / µM>
0.814

$$$$
>  <molecule>
CCOC(=O)/C(=C\NC(C)(C)C)c1nc2ccccc2o1

>  <reading qualifier>
=

>  <TGI / µM>
50.6

$$$$
>  <molecule>
Cc1ccnc2nc3[nH]c4ccccc4c3cc12

>  <reading qualifier>
>

>  <TGI / µM>
100

$$$$
>  <molecule>
O=c1[nH]n(Cc2ccccc2CCl)c2ccc([N+](=O)[O-])cc12

>  <reading qualifier>
>

>  <TGI / µM>
100

$$$$
>  <molecule>
COc1cc(/C=N/NC2=NCCCN2)ccc1O

>  <reading qualifier>
>

>  <TGI / µM>
100

$$$$
>  <molecule>
O=C(O)C(Br)Cc1ccc2c(c1)OCO2 (configuration not stated)

>  <reading qualifier>
>

>  <TGI / µM>
100

$$$$
>  <molecule>
COC1CC2CCC(C)[C@](O)(O2)C(=O)C(=O)N2CCCCC2C(=O)OC(C(C)CC2CCC(O)C(OC)C2)CC(=O)C(C)C=C(C)C(OC(=O)CN(C)C)C(OC)C(=O)C(C)CC(C)/C=C/C=C/C=C\1C (some centres not stated)

>  <reading qualifier>
=

>  <TGI / µM>
20.2

$$$$
>  <molecule>
N#CC(C#N)=C1CCCCc2ccc([N+](=O)[O-])cc21

>  <reading qualifier>
>

>  <TGI / µM>
100

$$$$
>  <molecule>
Cc1ccc2[nH]c(=O)c(C(C#N)c3ccccc3)nc2c1 (configuration not stated)

>  <reading qualifier>
=

>  <TGI / µM>
75.1

$$$$
